Numbers sourced from patent US20250197488A1.

Recorded kon for the following binders
Molecular target: T1, human IL-11 (AAH12506.1, Pro22-Leu199) (human, UniProt P20809 22-199)
T1 construct: The range Pro22-Leu199 counts on AAH12506.1; The Octet runs say only 'human IL-11'; also called hIL-11
T1 chain: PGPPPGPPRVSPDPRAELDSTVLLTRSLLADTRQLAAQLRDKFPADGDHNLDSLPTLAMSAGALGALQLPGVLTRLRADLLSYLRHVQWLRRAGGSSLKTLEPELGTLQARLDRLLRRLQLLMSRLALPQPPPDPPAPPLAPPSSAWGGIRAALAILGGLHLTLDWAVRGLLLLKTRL
Assay: BLI (Octet), antibody captured, human IL-11 in solution
Write the answer as a number in M⁻¹ s⁻¹, unit excluded.

* hz8C8-VHm1-m9 + hz8C8-VLm7-m2 (antibody, human IgG1, kappa, V domains shown, human IgG1 constant regions) VH: EVQLVESGGGLVQPGGSLRLSCAASGFTFSSFGMHWVRQAPGKGLEWMGYITPGSNTIYYADTVKGRFTISRDNAKNSLYLQMNSLRAEDTAVYYCAREYYSYDEGFAYWGQGTLVTVSS VL: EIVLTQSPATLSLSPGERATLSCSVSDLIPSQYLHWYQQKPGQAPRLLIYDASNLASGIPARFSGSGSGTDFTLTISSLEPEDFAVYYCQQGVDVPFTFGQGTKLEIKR | 897000

Query: Name the recorded kon for hz8C8-VHm1 + hz8C8-VLm6 (antibody, human IgG1, kappa, V domains shown, human IgG1 constant regions) VH: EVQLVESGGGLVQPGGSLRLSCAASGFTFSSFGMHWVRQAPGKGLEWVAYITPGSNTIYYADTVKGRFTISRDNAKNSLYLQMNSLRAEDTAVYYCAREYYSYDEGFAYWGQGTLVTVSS VL: EIVLTQSPATLSLSPGERATLSCSVSSLIPSKYLHWYQQKPGQAPRLLIYRTSNLASGIPARFSGSGSGTDFTLTISSLEPEDFAVYYCQQGVDVPFTFGQGTKLEIKR .
Response: 543000

Query: Name the recorded kon for hz8C8-VHm1 + hz8C8-VLm8 (antibody, human IgG1, kappa, V domains shown, human IgG1 constant regions) VH: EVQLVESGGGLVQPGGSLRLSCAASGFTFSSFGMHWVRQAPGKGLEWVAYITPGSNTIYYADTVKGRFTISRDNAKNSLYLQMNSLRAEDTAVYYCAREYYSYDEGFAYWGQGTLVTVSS VL: EIVLTQSPATLSLSPGERATLSCSVSDLIPSQYLSWYQQKPGQAPRLLIYRTSNLASGIPARFSGSGSGTDFTLTISSLEPEDFAVYYCQQGVDVPFTFGQGTKLEIKR .
Response: 948000

Query: Name the recorded kon for hz8C8-VHm1-m3 + hz8C8-VLm7-m1 (antibody, human IgG1, kappa, V domains shown, human IgG1 constant regions) VH: EVQLVESGGGLVQPGGSLRLSCAASGFTFSSFGMHWVRQAPGKGLEWVAYITPGSNTIYYADTVKGRFTISRDNAKNSLYLQMNSLRAEDTAVYYCAREYSSYDEGFAYWGQGTLVTVSS VL: EIVLTQSPATLSLSPGERATLSCSVSDLIPSQYLHWYQQKPGQAPRLLIYRASNLASGIPARFSGSGSGTDFTLTISSLEPEDFAVYYCQQGVDVPFTFGQGTKLEIKR .
Response: 954000
